Tested on: Cephalothin(CET)sensitive E. coli (2 strains), K. pneumoniae (1) and P. mirabilis (2)
experiment-notes: MIC by two-fold serial agar dilution in Mueller-Hinton agar, Gn-Ia
Format: cell-based
run-conditions: Gn-Ia, 5 strains, CET-sensitive; read-out: Geometric Mean of MIC
property: MIC (µg/mL)
One number for each entry, in µg/mL.

CO/N=C(\C(=O)NC1C(=O)N2C(C(=O)[O-])=C(C[N+]3(C)CCCCC3)CS[C@H]12)c1csc(N)n1 (stereo partly shown) [Example 1]: 0.03

Parameters: items (list). Returns: MIC for each item.
1. CO/N=C(\C(=O)NC1C(=O)N2C(C(=O)[O-])=C(C[N+]3(C)CCSCC3)CS[C@H]12)c1csc(N)n1 (stereo partly shown) [Example 20]
2. CO/N=C(\C(=O)NC1C(=O)N2C(C(=O)[O-])=C(C[N+]3(C)CCc4nc(N)sc4C3)CSC12)c1csc(N)n1 (stereo not shown) [Example 15]
3. CO/N=C(\C(=O)NC1C(=O)N2C(C(=O)[O-])=C(C[N+]3(C)CCOC3)CSC12)c1csc(N)n1 (single isomer, unassigned) [12 Isomer A]

Reply |
[0.064, 0.034, 0.046]

###

Task for the reader: assign each of the following molecules its reported MIC.
Test system: Cephalothin(CET)sensitive E. coli (2 strains), K. pneumoniae (1) and P. mirabilis (2)
experiment-notes: MIC by two-fold serial agar dilution in Mueller-Hinton agar, Gn-Ia
Format: cell-based
run-conditions: Gn-Ia, 5 strains, CET-sensitive; read-out: Geometric Mean of MIC
Numbers only, in µg/mL.

Would you please look over these solved cases?
CO/N=C(\C(=O)NC1C(=O)N2C(C(=O)[O-])=C(C[N+]34CCN(CC3)CC4)CS[C@H]12)c1csc(N)n1 (stereo partly shown): 0.07
C#CCO/N=C(\C(=O)NC1C(=O)N2C(C(=O)[O-])=C(C[N+]3(C)CCCC3)CSC12)c1csc(N)n1 (stereo not shown): 0.061
CO/N=C(\C(=O)NC1C(=O)N2C(C(=O)[O-])=C(C[N+]3(C)CCC(O)C3)CS[C@H]12)c1csc(N)n1 (stereo partly shown): 0.27

Turning now to a further molecule:
Ask | Quick check: MIC of CO/N=C(\C(=O)NC1C(=O)N2C(C(=O)[O-])=C(C[N+]3(C)CCCCCC3)CS[C@H]12)c1csc(N)n1 (stereo partly shown) ?
Reply | 0.05

###

Tested on: M. morganii (1), E. cloacae (2) and S. marcescens (2)
experiment-notes: MIC by two-fold serial agar dilution in Mueller-Hinton agar, Gn-II
Type: cell-based
run-conditions: read-out: Geometric Mean of MIC
property: MIC (µg/mL)
One number for each entry, in µg/mL.

Example results:
CO/N=C(\C(=O)NC1C(=O)N2C(C(=O)[O-])=C(C[N+]3(C)CCC(O)C3)CS[C@H]12)c1csc(N)n1 (stereo partly drawn): 0.14
CO/N=C(\C(=O)NC1C(=O)N2C(C(=O)[O-])=C(C[N+]34CCN(CC3)CC4)CS[C@H]12)c1csc(N)n1 (stereo partly drawn): 0.8
CO/N=C(\C(=O)NC1C(=O)N2C(C(=O)[O-])=C(C[N+]3(C)CCc4scnc4C3)CS[C@H]12)c1csc(N)n1 (stereo partly drawn): 0.4
CO/N=C(\C(=O)NC1C(=O)N2C(C(=O)[O-])=C(C[N+]3(C)CCC[C@H]3C(N)=O)CSC12)c1csc(N)n1 (single isomer, unassigned) [8 Isomer B]: 0.23
CO/N=C(\C(=O)NC1C(=O)N2C(C(=O)[O-])=C(C[N+]3(CCO)CCCC3)CSC12)c1csc(N)n1 (stereo not drawn): 0.2

--- query ---
Ask | Param item = CO/N=C(\C(=O)NC1C(=O)N2C(C(=O)[O-])=C(C[N+]3(CC(=O)O)CCCC3)CS[C@H]12)c1csc(N)n1 (stereo partly drawn) ; retrieve measured MIC.
Reply | 0.14

###

System: Penicillin(PC)sensitive S. aureus
experiment-notes: MIC by two-fold serial agar dilution in Mueller-Hinton agar, Gp-Ia
Assay type: cell-based
run-conditions: Staphylococcus aureus, Gp-Ia, 5 strains, PC-sensitive S. aureus; read-out: Geometric Mean of MIC
Label scheme for MIC: Low (below 0.8 µg/mL), Medium (0.8 µg/mL to below 2 µg/mL), High (2 µg/mL or more)

Here's what some known entries look like.
CO/N=C(\C(=O)NC1C(=O)N2C(C(=O)[O-])=C(C[N+]34CCN(CC3)CC4)CS[C@H]12)c1csc(N)n1 (stereo partly drawn): High
CO/N=C(\C(=O)NC1C(=O)N2C(C(=O)[O-])=C(C[N+]3(C)CCSC3)CSC12)c1csc(N)n1 (single isomer, unassigned) [13 Isomer A]: Medium
CO/N=C(\C(=O)NC1C(=O)N2C(C(=O)[O-])=C(C[N+]3(C)CCN(C)CC3)CS[C@H]12)c1csc(N)n1 (stereo partly drawn): High
CO/N=C(\C(=O)NC1C(=O)N2C(C(=O)[O-])=C(C[N+]34CCC(CC3)CC4)CS[C@H]12)c1csc(N)n1 (stereo partly drawn): Low
CO/N=C(\C(=O)NC1C(=O)N2C(C(=O)[O-])=C(C[N+]3(C)Cc4ccccc4C3)CS[C@H]12)c1csc(N)n1 (stereo partly drawn): Low

Ask | Which class does CO/N=C(\C(=O)NC1C(=O)N2C(C(=O)[O-])=C(C[N+]3(CCO)CCCC3)CSC12)c1csc(N)n1 (stereo not drawn) fall in?
Reply | Medium

Ask | // same read-out, input: CO/N=C(\C(=O)NC1C(=O)N2C(C(=O)[O-])=C(C[N+]3(C)CCOCC3)CS[C@H]12)c1csc(N)n1 (stereo partly drawn)
Reply | Medium

Ask | Could you do the same for C#CCO/N=C(\C(=O)NC1C(=O)N2C(C(=O)[O-])=C(C[N+]3(C)CCCC3)CSC12)c1csc(N)n1 (stereo not drawn) , please?
Reply | Low

Ask | Continue with CO/N=C(\C(=O)NC1C(=O)N2C(C(=O)[O-])=C(C[N+]3(CC(=O)O)CCCC3)CS[C@H]12)c1csc(N)n1 (stereo partly drawn)
Reply | High

Ask | Lookup CO/N=C(\C(=O)NC1C(=O)N2C(C(=O)[O-])=C(C[N+]3(C)CCCC3C)CS[C@H]12)c1csc(N)n1 (stereo partly drawn)
Reply | Medium

Ask | Would you mind doing CO/N=C(\C(=O)NC1C(=O)N2C(C(=O)[O-])=C(C[N+]3(C)CCc4scnc4C3)CS[C@H]12)c1csc(N)n1 (stereo partly drawn) as well?
Reply | Medium

###

Tested on: Cephalothin(CET)sensitive E. coli (2 strains), K. pneumoniae (1) and P. mirabilis (2)
experiment-notes: MIC by two-fold serial agar dilution in Mueller-Hinton agar, Gn-Ia
Type: cell-based
run-conditions: Gn-Ia, 5 strains, CET-sensitive; read-out: Geometric Mean of MIC
property: MIC (µg/mL)
Answers are plain numbers, in µg/mL.

CO/N=C(\C(=O)NC1C(=O)N2C(C(=O)[O-])=C(C[N+]3(C)CCC[C@H]3C(N)=O)CSC12)c1csc(N)n1 (single isomer, unassigned) [8 Isomer A]: 0.098

// for each compound in input: emit MIC
1. CO/N=C(\C(=O)NC1C(=O)N2C(C(=O)[O-])=C(C[N+]3(C)CCN(C)CC3)CS[C@H]12)c1csc(N)n1 (stereo partly drawn) [Example 5]
2. CO/N=C(\C(=O)NC1C(=O)N2C(C(=O)[O-])=C(C[N+]3(CCO)CCCC3)CSC12)c1csc(N)n1 (stereo not drawn) [Example 17]
3. CO/N=C(\C(=O)NC1C(=O)N2C(C(=O)[O-])=C(C[N+]3(C)CCSC3)CSC12)c1csc(N)n1 (single isomer, unassigned) [13 Isomer A]
4. C=CC[N+]1(CC2=C(C(=O)[O-])N3C(=O)C(NC(=O)/C(=N\OC)c4csc(N)n4)[C@H]3SC2)CCCC1 (stereo partly drawn) [Example 21]
5. CO/N=C(\C(=O)NC1C(=O)N2C(C(=O)[O-])=C(C[N+]3(C)CCOCC3)CS[C@H]12)c1csc(N)n1 (stereo partly drawn) [Example 2]
6. CO/N=C(\C(=O)NC1C(=O)N2C(C(=O)[O-])=C(C[N+]3(C)Cc4ccccc4C3)CS[C@H]12)c1csc(N)n1 (stereo partly drawn) [Example 14]
7. CO/N=C(\C(=O)NC1C(=O)N2C(C(=O)[O-])=C(C[N+]3(C)CCCC3C)CS[C@H]12)c1csc(N)n1 (stereo partly drawn) [Example 19]
8. CO/N=C(\C(=O)NC1C(=O)N2C(C(=O)[O-])=C(C[N+]3(C)CC=CC3)CS[C@H]12)c1csc(N)n1 (stereo partly drawn) [Example 11]

Reply |
[0.057, 0.057, 0.046, 0.045, 0.061, 0.042, 0.078, 0.019]

###

For each entry below, report its MIC value.
Tested on: Penicillin(PC)sensitive S. aureus
experiment-notes: MIC by two-fold serial agar dilution in Mueller-Hinton agar, Gp-Ia
Assay type: cell-based
run-conditions: Staphylococcus aureus, Gp-Ia, 5 strains, PC-sensitive S. aureus; read-out: Geometric Mean of MIC
One number for each entry, in µg/mL.

CO/N=C(\C(=O)NC1C(=O)N2C(C(=O)[O-])=C(C[N+]3(C)CC=CC3)CS[C@H]12)c1csc(N)n1 (stereo partly shown): 0.78

For every listed record, write down its MIC.
1. CO/N=C(\C(=O)NC1C(=O)N2C(C(=O)[O-])=C(C[N+]3(C)CCCCCC3)CS[C@H]12)c1csc(N)n1 (stereo partly shown)
2. CO/N=C(\C(=O)NC1C(=O)N2C(C(=O)[O-])=C(C[N+]3(C)CCSCC3)CS[C@H]12)c1csc(N)n1 (stereo partly shown)
3. CO/N=C(\C(=O)NC1C(=O)N2C(C(=O)[O-])=C(C[N+]3(C)CCC[C@H]3C(N)=O)CSC12)c1csc(N)n1 (single isomer, unassigned) [8 Isomer A]

Reply |
[0.9, 1.2, 2.1]
